Kindly supply the reported koff values for the records listed here.
Experimental Target: T1, human ST2L extracellular domain with C-terminal His6 tag (human, UniProt Q01638 19-328)
T1 construct: also called huST2L-ECD; ST2L-ECD
T1 sequence: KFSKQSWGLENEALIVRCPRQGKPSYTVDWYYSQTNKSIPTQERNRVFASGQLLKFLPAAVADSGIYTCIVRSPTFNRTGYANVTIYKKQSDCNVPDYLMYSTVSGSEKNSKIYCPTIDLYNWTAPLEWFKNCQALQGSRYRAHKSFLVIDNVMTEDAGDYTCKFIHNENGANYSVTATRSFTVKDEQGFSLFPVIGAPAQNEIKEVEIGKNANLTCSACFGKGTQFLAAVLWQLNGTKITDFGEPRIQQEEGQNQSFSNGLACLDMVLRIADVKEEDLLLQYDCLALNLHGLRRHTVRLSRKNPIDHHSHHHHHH
Measurement Notes: ProteOn SPR, mAb captured, ST2L-ECD in solution
Lab book: enter the figure in s⁻¹, no units written.

In plain terms, STLM191 (antibody, V domains shown, C2494 HFA mAb: VH STLH195 + VL STLL276 (L12)) VH: QVQLVQSGAEVKKPGASVKVSCKVSAFNIKDDYMHWVRQAPGKGLEWMGRIDPAIGNTEYAPKFQDRVTMTEDTSTDTAYMELSSLRSEDTAVYYCATGDFYAMDYWGQGTLVTVSS VL: DIQMTQSPSTLSASVGDRVTITCITNTDIDDVIHWYQQKPGKAPKLLIYEGNTLRPGVPSRFSGSGSGTEFTLTISSLQPDDFATYYCLQSDNMLTFGQGTKLEIK has a documented koff of 0.0247

Note to self: koff recorded for STLM199 (antibody, V domains shown, C2494 HFA mAb: VH STLH194 + VL STLL278 (L2)) VH: EVQLVQSGAEVKKPGATVKISCKVSAFNIKDDYMHWVQQAPGKGLEWMGRIDPAIGNTEYAEKFQGRVTITADTSTDTAYMELSSLRSEDTAVYYCATGDFYAMDYWGQGTLVTVSS VL: EIVMTQSPATLSVSPGERATLSCITNTDIDDVIHWYQQKPGQAPRLLIYEGNTLRPGIPARFSGSGSGTEFTLTISSLQSEDFAVYYCLQSDNMLTFGQGTKLEIK was 0.000897

// field: koff; key: STLM62 (antibody, human IgG2, V domains shown, Mouse hybridoma C2494 cloned into human IgG2 background (STLM62); also called C2494) VH: EVQLQQSVAELVRPGASVKLSCTASAFNIKDDYMHWVKQRPEQGLEWIGRIDPAIGNTEYAPKFQDKATMTADTSSNTAYLQLSSLTSEDTAVYYCALGDFYAMDYWGQGTSVTVSS VL: ETTVTQSPASLSVATGEKVTIRCITNTDIDDVIHWYQQKPGEPPKLLISEGNTLRPGVPSRFSSSGYGTDFVFTIENTLSEDVADYYCLQSDNMLTFGAGTKLELK ; value = 0.000159

Recorded values, source patent US20170066831A1.
